Conditions: buffer; pH 7.4; 200.0 µM
Reported solubility kinetic values for the following compounds.
Report the figure in µg/mL without appending any unit label.

- COMPOUND: "CCNCCC(CCC(C)C)c1ccc2c(c1)OCO2 (stereo unspecified)"
  RESULT UNIT: "µg/mL"
  solubility kinetic: 33.7

Lookup result for `COc1cc(C(=O)N2CCc3ccccc32)cc(OC)c1OC` ; measured solubility kinetic: 40.8

response.value for `O=C(c1cc2ccccc2oc1=O)N1CCCCCCC1` (field: solubility kinetic) = 42.5

// solubility kinetic lookup, compound = CC(C)CC(OC(=O)c1ccco1)C(=O)NC1CCCC1 (stereo unspecified) , result: 41.1

Noted for `CN(C)S(=O)(=O)c1cccc(NC(=O)COC(=O)[C@H](Cc2ccccc2)NC(=O)c2ccco2)c1` : its solubility kinetic reads 24.2
